These entries and their values trace back to patent US20250270173A1.

Below is a list of entries, each paired with its recorded EC50 value.
- STUDY SYSTEM: 5-HT1A receptor (Homo sapiens (Human))
- PROTOCOL DETAILS: FLIPR Ca2+ flux functional assay at 5-HT1A (CHO cells)

>  <COMPOUND>
CCCCc1cc(OC)c(CCN)nc1OC [Compound 31]

>  <STUDY SYSTEM>
5-HT1A receptor (Homo sapiens (Human))

>  <EC50>
> 100 µM

$$$$
>  <COMPOUND>
COc1cc(CCCCF)c(OC)nc1CCN [Compound 32]

>  <STUDY SYSTEM>
5-HT1A receptor (Homo sapiens (Human))

>  <EC50>
> 100 µM

$$$$
>  <COMPOUND>
COc1cc(Cl)c(OC)nc1CCN [Compound 16]

>  <STUDY SYSTEM>
5-HT1A receptor (Homo sapiens (Human))

>  <EC50>
> 100 µM

$$$$
